B1: POU domain, class 4, transcription factor 3, residues 185 to 256; numbered along this chain, Q15319 (parent)
chain: RELEAFAERFKQRRIKLGVTQADVGAALANLKIPGVGSLSQSTICRFESLTLSHNNMIALKPVLQAWLEEAE

Variants of: B1
Assay: abundance fitness (aPCA) (normalised: wild type 0, dead -1); higher = more abundant; growth selection in yeast, the domain comes from the species named
Conditions: Homo sapiens
Binned abundance fitness; ranges: zone 1: < -0.3; zone 2: ≥ -0.3 and < -0.05; zone 3: ≥ -0.05

Reference set, count: 3
>>> answer_label("RELEAFAERFKQRRIKLGVTQADVGAALAPLKIPGVGSLSQSTICRFESLTLSHNNMIALKPVLQAWLEEAE [N30P]")
"zone 2"
>>> answer_label("RELEAFAERFKQRRIKLGVTQADVGAALANLKIPGVGRLSQSTICRFESLTLSHNNMIALKPVLQAWLEEAE [S38R]")
"zone 2"
>>> answer_label("RELEAFAERFKQRRIKLGVTQADAGAALANLKIPGVGSLSQSTICRFESLTLSHNNMIALKPVLQAWLEEAE [V24A]")
"zone 2"

[ask] Where would RELEAFAERFKQRRIKLGVTQADVGAALAILKIPGVGSLSQSTICRFESLTLSHNNMIALKPVLQAWLEEAE [N30I] land among the classes by reported abundance fitness?
[reply] zone 1

[ask] Where would RELEAFAERFKQRRIKLGVTQADVGAALANLKIPGVGSLSQSTICRFERLTLSHNNMIALKPVLQAWLEEAE [S49R] land among the classes by reported abundance fitness?
[reply] zone 2
